- Test system: MS2 coat protein
- method.description: apparent KD of MS2 coat protein; higher = weaker reporter binding
- experimental.setup: Eterna round: R107; input ligand: theophylline 2 mM
quantity.kind: apparent KD of MS2 coat protein (nM)
Expressed in nM, but write only the number.

* CCGGGCUGUGGAGACAUAGCCCGGACUGAAGGAGCGGGAAUAAACCCAGGUAGGUCGCAGAGAUCCACAUGAGGAUCACCCAUGU [!0.S] | 46.8

Query :: GET /values?readout=apparent KD of MS2 coat protein&item= UCGGUGCUCUACAUGAGGAUCACCCAUGUCCGAGGACCGGUACGGCCGCCACUCGCAAUCAAACAGACGUGGGCCAACUUUGCGU [Tiribeesqu]
Result :: 11

Query :: GET /values?readout=apparent KD of MS2 coat protein&item= AUAUAUAUGCGAAGGAGCGGGAAAUAUAUAUAUAUAAUCCUAACAUGAGGAUCACCCAUGUCCCAGGUAGGUCGCGCAUAUAUAU [12.A]
Result :: 87

----------
- Test system: MS2 coat protein
- method.description: apparent KD of MS2 coat protein; higher = weaker reporter binding
- experimental.setup: Eterna round: R107; input ligand: theophylline 20 uM
quantity.kind: apparent KD of MS2 coat protein (nM)
Expressed in nM, but write only the number.

These recorded examples may help you get a feel for the data.
- UGUCGAAACUGAAGGAGCGAGAUGACAACAUUGGGUCUAACAUGAGGAUCACCCAUGUAAUCUCAGGUAGGUCGCAGUGACAAAA [Exclusion Arginine B GF 15]: 123
- AGUCUUGAACGAAGGAGCGACGUACAUGAGGAUCACCCAUGUGUGGAGCGAAAGCUCCAACGUCAGGUAGGUCGCGUUCGAGACA [Omei Arginine B SS A v2]: 18

Continue with the next sequence.
Query :: GET /values?readout=apparent KD of MS2 coat protein&item= AGUAGUUGACAAAAGUCAGCUACAAUUGAAGGAGCGGGUGGGUGCCCAGGUAGGUCGCAAUAACAUGAGGAUCACCCAUGUAUAA [ArgAS 2 #BothOrNeither #OpenEnded]
Result :: 22.9

----------
- Tested on: MS2 coat protein
- method.description: apparent KD of MS2 coat protein; higher = weaker reporter binding
- experimental.setup: Eterna round: R107; input ligand: tryptophan 2.4 mM
quantity.kind: apparent KD of MS2 coat protein (nM)
Expressed in nM, but write only the number.

These recorded examples may help you get a feel for the data.
• GGCACCAGGAGAAGGAGCGUGAAGACAUGAGGAUCACCCAUGUAGAGGCCCGGACCGGGUUCGCAGGUAGGUCGCUCCUGGUGCC [#1 Same State - Arginine B Attempt #15 (HarryS)] = 16.9
• CCGCACAUGAGGAUCACCCAUGUCAGGGAUACCAGCCCAGACAUGGGCCCUUGGCAGCCCUGUAGCUGACGAAAGUCAGCAGCGG [Omei Theo A SS A v1] = 44.7
• AUGCAUAUCAGAAGGAGCGUCAUUAACAUGAGGAUCACCCAUGUAACAUUGAAUUCGAUGAGACAGGUAGGUCGCUGAAUAGUAA [SS-ArgB26] = 31.1

Query :: GET /values?readout=apparent KD of MS2 coat protein&item= UCGUGUAUUUCGGAUACCAGUGAAAUCGAUACAUGAGGAUCACCCAUGUGAGAGGAUGUACACCCUUGGCAGCUGUCUGUAUCUG [cxezmullin]
Result :: 15.5

Query :: GET /values?readout=apparent KD of MS2 coat protein&item= GUAGCGACGGCGGCCGCCACUCGCACGUGAGGGUAGACCAACCUUCACAUGAGGAUCACCCAUGUGAGGACCGGGCUGUCGCUAC [#15 Exclusion Tryptophan B]
Result :: 46.4

Query :: GET /values?readout=apparent KD of MS2 coat protein&item= AGCAAGUUCGGAAGGAGCGGUACAUGAGGAUCACCCAUGUAUUCAAUCGUGAUCGGAACGUGCCAGGUAGGUCGCCGAAUGCGUC [XArg-B1]
Result :: 15

Query :: GET /values?readout=apparent KD of MS2 coat protein&item= UGUAUGUGAUCUGAUACCAGAGUGACGCGAAAGCGACCUGAGGAUCACCCUGGUAAAUAACUCCCUUGGCAGCAGAUCGCAUACU
Result :: 48.3

Query :: GET /values?readout=apparent KD of MS2 coat protein&item= ACAAGAGGUGGAAGGAGCGGGAGACAUGAGGAUCACCCAUGUGAAGUUUCGAGAGGAUCAUCCCAGGUAGGUCGCCAUGUCGAAA [ojjomullin]
Result :: 49.7

Query :: GET /values?readout=apparent KD of MS2 coat protein&item= ACAUGAGGGCGAAGGAGCGCGAACAUGAGGAUCACCCAUGUCUAUAUCCGUCCGCAUGUAUCGCAGGUAGGUCGCGCUGUUACUU [#13 Exclusion - Arginine B]
Result :: 8.52

Query :: GET /values?readout=apparent KD of MS2 coat protein&item= UGUAUGUGAUCUGAUACCAGCUUAAUAACAUGAGCAUCAGCCAUGUGGAGCGGAAACGCUAGCCCUUGGCAGCAGAUCGCAUACU [Denovo 11 #StaticStem #AlternativeMS2]
Result :: 129

Query :: GET /values?readout=apparent KD of MS2 coat protein&item= UGACGAUACCUGGAUACCAGCGACAUGAGGAUCACCCAUGUAUGAGGAUCAGCCAUGAUAUGCCCUUGGCAGCCACGAAAGUCUU [VUVMULLIN]
Result :: 18.6

Query :: GET /values?readout=apparent KD of MS2 coat protein&item= ACAUGAGGAUCACCCAUGUGGAGCAGGGUACGAGGACCGGUACGGCCGCCACUCGAGCGUUAUGACGAGUGAAUGGCAACGAUGU [whbob_X-Trypto_A_V1.0]
Result :: 12.1

Query :: GET /values?readout=apparent KD of MS2 coat protein&item= UGUAUGUGAUCUGAUACCAGCUAGCGGAAACGCAAGCUUGAGGAUCACCCAAGUGGAAUAAGCCCUUGGCAGCAGAUCGCAUACU [Denovo 5 #StaticStem #AlternativeMS2]
Result :: 376

----------
apparent KD of MS2 coat protein: recorded values
- Test system: MS2 coat protein
- method.description: apparent KD of MS2 coat protein; designed switch direction (-1 OFF switch, 1 ON switch): -1; higher = weaker reporter binding
- experimental.setup: input ligand: FMN 200 uM
Expressed in nM, but write only the number.

These recorded examples may help you get a feel for the data.
* AGGCGCUAGUAGGAUAUCUGGAACGGAUUAUAAAGAGAAGGGCUGACAUGAGGAUCACCCAUGUGACCAAUGCG [Eternabot (L1) Solution 50] (Eterna round: R97, puzzle: Exclusion 6) | 41.2
* AGAUUAAAUGAGGAUAUCGUAUUGGAUAUAGUGCGAGAAGGCAUGACAUGAGGAUCACCCAUGUAGUGUUGGGA [JR_Ex6_Sub009] (Eterna round: R97, puzzle: Exclusion 6) | 91.5
* ACAAGCUUGUAAUGAUUGAACAUGAGGAUCACCCAUGUAAAUGGAAGAACCAAUUGGAUAAGAUAAACUCGUCUUAU [JR_STOV1_Sub004] (Eterna round: R97, puzzle: Sensor, turn-off variant 1) | 107
* GUCUGAGCAGGAUAUACAUGAGGAUCACCCAUGUUGGUUCAGCGACGAUAGUCGCAAUGUAGAAGGGCUCAGAC [E3/9-D1] (Eterna round: R97, puzzle: Exclusion 3) | 73.5

Continue with the next sequence.
Query :: GET /values?readout=apparent KD of MS2 coat protein&item= UCAGGUGCAGGAUAUACAUGAGGAUCACCCAUGUGGUCACGUGACGAUAGUCACGAAUGUAGAAGGGCACCUGA [E3/3-D1] (Eterna round: R97, puzzle: Exclusion 3)
Result :: 60.1

----------
- Test system: MS2 coat protein
- method.description: apparent KD of MS2 coat protein; higher = weaker reporter binding
- experimental.setup: Eterna round: R107; input ligand: theophylline 20 uM
quantity.kind: apparent KD of MS2 coat protein (nM)
Expressed in nM, but write only the number.

These recorded examples may help you get a feel for the data.
- GAUAGUUGAUGGGAUACCAGCCUACACAUGAGGAUCACCCAUGUGAUUCGUGUACGACUGGGCCCUUGGCAGCCCAUAUUGUGUA [#12 Same State - Theophylline B]: 202
- GACAUGAGGAUCACCCAUGUUUGCUAUGAAGGAGCGUCGGAAAUGACAGGUAGGUCGCAUAGUAGGCCUUGUAUUUUGUGUGUUU [EAA #8]: 14.4
- UGUAACAUGAGGAUCACCCAUGUGAGUGAUACCAGACUAGUGUUGGUCCCUUGGCAGCACGCUGGACGAAUGUGUAGUCUAUGCG [Same State - Theophylline A (Freestyle 18)]: 107
- UCGGGCAGAGCGGCCGCCACUGUAAGGCGUGCGGAUGACGGAACAUGAGGAUCACCCAUGUUGUUUAGGACCGGGCUUGCGGCGA [nynullin]: 27.2
- ACAAGAGGGAUGGAUACCAGCGACAUGAGGAUCACCCAUGUAUGAGGAUCAGCCAUGUUAUGCCCUUGGCAGCCACGAACAUCAG [SSAMULLIN]: 30.8

Continue with the next sequence.
Query :: GET /values?readout=apparent KD of MS2 coat protein&item= GACAUGAGGAUCACCCAUGUGUAACCAGAAGGAGCGUGCGAAAGCACAGGUAGGUCGCUGGUGGGUUUAGGUUUAGUAGGUGUUC [SSAA NP+V+V2 #3]
Result :: 100
